# measurement.target: T1, human VEGF (human, UniProt P15692-4 27-191)
# T1 construct: Bought recombinant protein; also called hVEGF; human VEGF-A
# T1 sequence (P15692 other isoform, or with tags, fused parts or gaps limits assumed): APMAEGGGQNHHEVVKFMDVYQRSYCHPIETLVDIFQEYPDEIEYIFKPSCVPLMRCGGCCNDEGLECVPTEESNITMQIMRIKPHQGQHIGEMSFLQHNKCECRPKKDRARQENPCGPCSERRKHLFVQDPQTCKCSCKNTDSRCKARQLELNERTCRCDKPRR
# experimental.details: SPR (BIAcore X100), VEGF on CM5 chip, IgG injected, 1:1 Langmuir
measured.quantity: kon

* HF2-14 (antibody, V domains shown) VH: EVQLVESGGGLVQPGGSLRLSCAASHSSIRSHGMQWVRQAPGKGLEYVAGISSDGSWLRQDAAVEGRFTISRDDSKNTAYLQMNSLRAEDTAVYYCARDFSTGYGADSIDAWGQGTLVTVSS VL: DIQMTQSPSSLSASVGDRVTITCSGGSDSAYGYGWYQQKPGKAPKTLIYWDDKRPSGVPSRFSGSRSGTDFTLTISSLQPEDFATYYCGAWEYSGGVGIFGQGTKVEIK | 1.3e+06 M⁻¹ s⁻¹
* HF2-4 (antibody, V domains shown, also called HF-4) VH: EVQLVESGGGLVQPGGSLRLSCAASGWSMRSHGMQWVRQAPGKGLEYVAGISSDGSWRRHSAAVEGRFTISRDDSKNTAYLQMNSLRAEDTAVYYCARDFSTGYGADSIDAWGQGTLVTVSS VL: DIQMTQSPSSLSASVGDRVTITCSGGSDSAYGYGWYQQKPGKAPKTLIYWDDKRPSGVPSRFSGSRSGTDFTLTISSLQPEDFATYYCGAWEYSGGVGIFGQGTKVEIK | 1.6e+06 M⁻¹ s⁻¹
* HF2-10 (antibody, V domains shown) VH: EVQLVESGGGLVQPGGSLRLSCAASFQYFRSHGMQWVRQAPGKGLEYVAGISSDGSWFRVAAAVEGRFTISRDDSKNTAYLQMNSLRAEDTAVYYCARDFSTGYGADSIDAWGQGTLVTVSS VL: DIQMTQSPSSLSASVGDRVTITCSGGSMEPLGYGWYQQKPGKAPKTLIYWDDKRPSGVPSRFSGSRSGTDFTLTISSLQPEDFATYYCGAWEYSGGVGIFGQGTKVEIK | 1.6e+06 M⁻¹ s⁻¹
